test system: lambsquarters; experiment: Test B pre-/postemergence herbicide test; type: in vivo, Chenopodium album; conditions: 125 g ai/ha; 0 is no effect, 100 is complete control; preemergence
RESULT TYPE: Plant response rating (0 to 100 scale), Lambsquarters

MOLECULE SMILES: CCc1nn(C(C)C)nc1C(=O)Nc1cccc(C(=O)N(C)CC)c1
READING: 100
--
MOLECULE SMILES: CCNC(=O)c1cccc(NC(=O)c2nn(C3CCCC3)nc2CC)c1
READING: 40
--
MOLECULE SMILES: Cc1nn(C(C)(C)C)nc1C(=O)Nc1cccc(C(=S)N(C)C)c1
READING: 100
--
MOLECULE SMILES: CCSCNC(=O)c1cccc(NC(=O)c2cc(C(C)(C)C)nn2CC)c1
READING: 0
--
MOLECULE SMILES: CCc1nn(C(C)(C)C)nc1C(=O)Nc1cc(C(=O)N2CC=CC2)ccc1F
READING: 0
--
MOLECULE SMILES: Cc1nn(C(C)C)nc1C(=O)Nc1cc(C(=O)N2CC=CC2)ccc1F
READING: 0
--
MOLECULE SMILES: C=CCNC(=O)c1ccc(F)c(NC(=O)c2cc(C(C)(C)C)nn2CC)c1
READING: 100
--
MOLECULE SMILES: CCNC(=S)c1cccc(NC(=O)c2nn(C(C)(C)C)nc2C)c1
READING: 100
--
MOLECULE SMILES: CCn1nc(C(C)(C)C)cc1C(=O)Nc1cccc(OS(=O)(=O)CC)c1
READING: 100
--
MOLECULE SMILES: CCc1nn(C(C)C)nc1C(=O)Nc1cccc(C(=S)N(C)C)c1
READING: 100

---

Each entry below carries its reported Plant response rating (0 = no effect, 100 = complete control), Foxtail, Giant.
system: giant foxtail; assay: Test C pre-/postemergence herbicide test; format: in vivo, Setaria faberi; details: 62 g ai/ha; preemergence
RESULT TYPE: Plant response rating (0 = no effect, 100 = complete control), Foxtail, Giant

MOLECULE SMILES: C=CCn1nc(C(C)(C)C)cc1C(=O)Nc1cccc(C(=O)NCC)c1
READING: 45

MOLECULE SMILES: CCOC(=O)c1cc(NC(=O)c2cc(C(C)(C)C)nn2CC)ccc1OCC
READING: 60

MOLECULE SMILES: CCOC(=O)c1cccc(NC(=O)c2cc(C(C)(C)C)nn2CC)c1
READING: 10

MOLECULE SMILES: C=Cn1nc(C(C)(C)C)cc1C(=O)Nc1cccc(C(=O)N(CC)CC)c1
READING: 10

MOLECULE SMILES: CCn1nc(C(C)(C)C)cc1C(=O)Nc1cccc(C(=O)NC2CC2)c1
READING: 10

---

Each entry below carries its reported Plant response rating (0 = no effect, 100 = complete control), Kochia.
test system: kochia; assay: Test C pre-/postemergence herbicide test; format: in vivo, Kochia scoparia; settings: 62 g ai/ha; preemergence
RESULT TYPE: Plant response rating (0 = no effect, 100 = complete control), Kochia

MOLECULE SMILES: CC(=O)c1cccc(NC(=O)c2cc(C(C)(C)C)nn2CCF)c1
READING: 0

MOLECULE SMILES: CCn1nc(C(C)(C)C)cc1C(=O)Nc1cccc(C(=O)NC2CC2)c1
READING: 0

MOLECULE SMILES: CCNC(=O)c1cccc(NC(=O)c2cc(C(C)(C)C)nn2CC(F)(F)F)c1
READING: 0

MOLECULE SMILES: CCCCOc1cccc(NC(=O)c2cc(C(C)(C)C)nn2CC)c1
READING: 80

---

tested on: morningglory; assay: Test A pre-/postemergence herbicide test; type: in vivo, Ipomoea spp.; settings: Postemergence, 2000 g ai/ha; 0 to 100 scale, 0 no effect, 100 complete control

MOLECULE: Cn1nc(C(C)(C)C)cc1C(=O)Nc1cccc(C(=O)NC2CC2)n1 [Compound 315]
Plant response rating, Morningglory: 0
//
MOLECULE: CC(=O)c1cccc(NC(=O)c2cc(C(C)(C)C)nn2CCF)c1 [Compound 128]
Plant response rating, Morningglory: 15
//
MOLECULE: CCc1nc(C(C)(C)C)sc1C(=O)Nc1cccc(C(=O)NC(C)(C)C)n1 [Compound 216]
Plant response rating, Morningglory: 20
//
MOLECULE: CCNC(=O)c1cccc(NC(=O)c2nn(C3CCCC3)nc2CC)c1 [Compound 356]
Plant response rating, Morningglory: 20
//
MOLECULE: CCc1nc(C(C)(C)C)sc1C(=O)Nc1cccc(C(=O)NCC2CC2)c1 [Compound 212]
Plant response rating, Morningglory: 20
//
MOLECULE: CCN(CC)C(=O)c1cccc(NC(=O)c2cc(C(C)(C)C)nn2CCF)c1 [Compound 36]
Plant response rating, Morningglory: 10
//
MOLECULE: CCn1nc(C(C)(C)C)cc1C(=O)Nc1ccnc(C(=O)N2CC=CC2)c1 [Compound 282]
Plant response rating, Morningglory: 15
//
MOLECULE: Cc1nn(C(C)(C)C)cc1C(=O)Nc1cccc(OC(C)C)c1 [Compound 189]
Plant response rating, Morningglory: 10
//
MOLECULE: CCOc1cccc(NC(=O)c2cc(C(C)(C)C)nn2CC)c1 [Compound 136]
Plant response rating, Morningglory: 40
//
MOLECULE: CCn1nc(C(C)(C)C)cc1C(=O)Nc1cc(C(=O)NC(C)(C)C)ccn1 [Compound 154]
Plant response rating, Morningglory: 40
//
MOLECULE: Cn1nc(C(C)(C)C)cc1C(=O)Nc1cccc(C#N)c1 [Compound 121]
Plant response rating, Morningglory: 20
//
MOLECULE: CCN(C)C(=O)c1ccc(F)c(NC(=O)c2cc(C(C)(C)C)nn2CC)n1 [Compound 280]
Plant response rating, Morningglory: 10

---

Each entry below carries its reported Plant response rating, Barnyardgrass.
test system: barnyardgrass; test: Test B pre-/postemergence herbicide test; format: in vivo, Echinochloa crus-galli; conditions: 500 g ai/ha; visual rating, 0 = no effect, 100 = complete control; preemergence

COMPOUND: CCNC(=O)c1cc(NC(=O)c2cc(C(C)(C)C)nn2CC)c(F)cc1F [Compound 252]
Plant response rating, Barnyardgrass: 70

COMPOUND: CCNC(=O)c1ccc(F)c(NC(=O)c2cc(C3(C)CC3)nn2CC)c1 [Compound 300]
Plant response rating, Barnyardgrass: 90

COMPOUND: CCNC(=O)c1ccc(F)c(NC(=O)c2cc(C(C)(C)C)nn2CC)n1 [Compound 278]
Plant response rating, Barnyardgrass: 80

COMPOUND: C=CCNC(=O)c1cccc(NC(=O)c2cc(C(C)(C)C)nn2C)n1 [Compound 318]
Plant response rating, Barnyardgrass: 90

COMPOUND: CCn1nc(C(C)(C)C)cc1C(=O)Nc1cncc(C(=O)N2CC=CC2)n1 [Compound 290]
Plant response rating, Barnyardgrass: 80

COMPOUND: CCNC(=O)c1ccnc(NC(=O)c2nn(C(C)(C)C)cc2CC)c1 [Compound 233]
Plant response rating, Barnyardgrass: 10

COMPOUND: CCn1nc(C(C)(C)C)cc1C(=O)Nc1cncc(C(=O)N2CC=CC2)c1 [Compound 260]
Plant response rating, Barnyardgrass: 70

COMPOUND: CCNC(=O)c1cc(NC(=O)c2cc(C(C)(C)C)nn2CC)ccn1 [Compound 257]
Plant response rating, Barnyardgrass: 20

COMPOUND: CCNC(=O)c1cncc(NC(=O)c2cc(C(C)(C)C)nn2CC)c1 [Compound 259]
Plant response rating, Barnyardgrass: 70

COMPOUND: CCc1nn(C(C)(C)C)cc1C(=O)Nc1cc(C(=O)N(C)CC)ccc1F [Compound 224]
Plant response rating, Barnyardgrass: 90

COMPOUND: CCn1nc(C(C)(C)C)cc1C(=O)Nc1nc(C(=O)N2CC=CC2)ccc1F [Compound 281]
Plant response rating, Barnyardgrass: 90

COMPOUND: CCn1nc(C(C)(C)C)cc1C(=O)Nc1ccc(OC)c(OC)c1 [Compound 298]
Plant response rating, Barnyardgrass: 90

COMPOUND: CCNC(=O)c1ccc(F)c(NC(=O)c2sc(C(C)(C)C)nc2CC)c1 [Compound 226]
Plant response rating, Barnyardgrass: 60

COMPOUND: CCn1nc(C2(C)CC2)cc1C(=O)Nc1cc(C(=O)N2CC=CC2)ccc1F [Compound 301]
Plant response rating, Barnyardgrass: 100

COMPOUND: CCn1nc(C(C)(C)C)cc1C(=O)Nc1cc(C(=O)N(C)OC)ccc1F [Compound 244]
Plant response rating, Barnyardgrass: 90

COMPOUND: CCNC(=O)c1cccc(NC(=O)c2nn(C(C)C)nc2CC)c1 [Compound 357]
Plant response rating, Barnyardgrass: 80
